Subject Of Test: b-Raf (Homo sapiens (Human))
Sequence (P15056 whole entry, species assumed): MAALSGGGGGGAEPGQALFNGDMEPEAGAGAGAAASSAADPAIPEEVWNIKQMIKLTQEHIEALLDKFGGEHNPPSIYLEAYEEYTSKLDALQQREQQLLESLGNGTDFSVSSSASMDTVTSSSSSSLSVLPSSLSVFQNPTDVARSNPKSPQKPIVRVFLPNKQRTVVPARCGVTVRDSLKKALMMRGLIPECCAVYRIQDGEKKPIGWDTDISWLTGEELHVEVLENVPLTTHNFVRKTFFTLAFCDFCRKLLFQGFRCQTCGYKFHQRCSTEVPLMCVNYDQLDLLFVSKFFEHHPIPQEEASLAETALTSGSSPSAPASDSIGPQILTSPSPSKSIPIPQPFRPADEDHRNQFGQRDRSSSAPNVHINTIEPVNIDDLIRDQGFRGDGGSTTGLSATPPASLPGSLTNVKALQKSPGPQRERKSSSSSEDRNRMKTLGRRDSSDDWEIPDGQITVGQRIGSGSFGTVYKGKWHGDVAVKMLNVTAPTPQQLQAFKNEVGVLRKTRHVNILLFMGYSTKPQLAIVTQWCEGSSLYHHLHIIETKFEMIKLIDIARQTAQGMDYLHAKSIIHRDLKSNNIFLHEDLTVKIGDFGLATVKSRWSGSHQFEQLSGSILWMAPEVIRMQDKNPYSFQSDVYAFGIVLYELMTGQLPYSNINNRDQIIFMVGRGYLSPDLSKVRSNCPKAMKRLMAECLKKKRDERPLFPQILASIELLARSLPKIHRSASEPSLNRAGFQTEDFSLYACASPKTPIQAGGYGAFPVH
Method Notes: Enzyme-inhibiting activity test of kinases other than Trk (selectivity experiment): b-Raf
Assay type: biochemical
Assay Setup: concentration of 3 μM; read-out: Inhibition rate (%) b-Raf
Provide the reported inhibition at 3 µM of each item.
One number for each entry, in %.

[[record]]
compound = "Nc1ncc(Cl)cc1-c1ccc(Oc2ncc(NC(=O)Nc3ccc(C(F)(F)F)cc3C(F)(F)F)cn2)cc1 [Example 15-77]"
parameter = "inhibition at 3 µM"
measured = 32


State the recorded inhibition at 3 µM for every item in the following list.
1. Cn1nccc1-c1ccc(C(F)(F)F)cc1NC(=O)Nc1cnc(Oc2ccc(-c3cc(Cl)cnc3N)cc2)nc1 [Example 13-1]
2. CS(=O)(=O)c1ccc(C(F)(F)F)cc1NC(=O)Nc1cnc(Oc2ccc(-c3cc(Cl)cnc3N)cc2)nc1 [Example 15-104]
3. Cc1ccn2ncc(-c3ccc(Oc4ncc(NC(=O)Nc5cc(C(F)(F)F)ccc5-c5cccnc5)cn4)cc3)c2n1 [Example 21-65]
4. Nc1ncc(C(F)(F)F)cc1-c1ccc(Oc2ncc(NC(=O)Nc3cc(C(F)(F)F)ccc3-n3ccc(C(F)(F)F)n3)cn2)cc1 [Example 15-52]
5. Cc1cn(-c2ccc(C(F)(F)F)cc2NC(=O)Nc2cnc(Oc3ccc(-c4cc(Cl)cnc4N)cc3)nc2)nn1 [Example 8-1]
6. Nc1ncc(Cl)cc1-c1ccc(Oc2ncc(NC(=O)Nc3cc(C(F)(F)F)ccc3-c3ccccc3)cn2)cc1 [Example 15-55]

Ans.
[33, 53, 58, 20, 6.5, 30]

---

Subject Of Test: UniProt P15056
Method Notes: Enzyme-inhibiting activity test of kinases other than Trk (selectivity experiment): b-Raf
Type: biochemical
Assay Setup: concentration of 3 μM; read-out: Inhibition rate (%) b-Raf
Parameter: inhibition at 3 µM
Answer with the figure and its unit, nothing else.

Some solved entries appear below for comparison.
[[record]]
item_smiles = "CN(C)S(=O)(=O)c1ccc(C(F)(F)F)cc1NC(=O)Nc1cnc(Oc2ccc(-c3cc(C(F)(F)F)cnc3N)cc2)nc1"
subject_of_test = "UniProt P15056"
parameter = "inhibition at 3 µM"
measured = "26%"

[[record]]
item_smiles = "CN(C)c1ccn2ncc(-c3ccc(Oc4ncc(NC(=O)Nc5cc(C(F)(F)F)ccc5-c5ccccc5)cn4)cc3)c2n1"
subject_of_test = "UniProt P15056"
parameter = "inhibition at 3 µM"
measured = "19%"


State the recorded inhibition at 3 µM for every item in the following list.
1. CS(=O)(=O)c1ccc(C(F)(F)F)cc1NC(=O)Nc1cnc(Oc2ccc(-c3cc(F)cnc3N)cc2)nc1
2. Nc1ncc(Cl)cc1-c1ccc(Oc2ncc(NC(=O)Nc3cc(C(F)(F)F)ccc3-n3cc(Cl)cn3)cn2)cc1

Ans.
1. 22%
2. 43%

State the recorded inhibition at 3 µM for every item in the following list.
1. Cc1cccc(-c2ccc(C(F)(F)F)cc2NC(=O)Nc2cnc(Oc3ccc(-c4cnn5ccc(N(C)C)nc45)cc3)nc2)c1
2. CN(C)c1ccn2ncc(-c3ccc(Oc4ncc(NC(=O)Nc5cc(C(F)(F)F)ccc5-c5cccnc5)cn4)cc3)c2n1

Ans.
21%
50%

Recorded inhibition at 3 µM (compound "Nc1ncc(Cl)cc1-c1ccc(Oc2ncc(NC(=O)Nc3cc(Cl)ccc3-n3ccc(C(F)(F)F)n3)cn2)cc1" ): 40%

---

Provide the reported inhibition at 3 µM of each item.
Subject Of Test: KDR (Homo sapiens (Human), UniProt P35968)
Sequence (P35968 20-1356, species assumed): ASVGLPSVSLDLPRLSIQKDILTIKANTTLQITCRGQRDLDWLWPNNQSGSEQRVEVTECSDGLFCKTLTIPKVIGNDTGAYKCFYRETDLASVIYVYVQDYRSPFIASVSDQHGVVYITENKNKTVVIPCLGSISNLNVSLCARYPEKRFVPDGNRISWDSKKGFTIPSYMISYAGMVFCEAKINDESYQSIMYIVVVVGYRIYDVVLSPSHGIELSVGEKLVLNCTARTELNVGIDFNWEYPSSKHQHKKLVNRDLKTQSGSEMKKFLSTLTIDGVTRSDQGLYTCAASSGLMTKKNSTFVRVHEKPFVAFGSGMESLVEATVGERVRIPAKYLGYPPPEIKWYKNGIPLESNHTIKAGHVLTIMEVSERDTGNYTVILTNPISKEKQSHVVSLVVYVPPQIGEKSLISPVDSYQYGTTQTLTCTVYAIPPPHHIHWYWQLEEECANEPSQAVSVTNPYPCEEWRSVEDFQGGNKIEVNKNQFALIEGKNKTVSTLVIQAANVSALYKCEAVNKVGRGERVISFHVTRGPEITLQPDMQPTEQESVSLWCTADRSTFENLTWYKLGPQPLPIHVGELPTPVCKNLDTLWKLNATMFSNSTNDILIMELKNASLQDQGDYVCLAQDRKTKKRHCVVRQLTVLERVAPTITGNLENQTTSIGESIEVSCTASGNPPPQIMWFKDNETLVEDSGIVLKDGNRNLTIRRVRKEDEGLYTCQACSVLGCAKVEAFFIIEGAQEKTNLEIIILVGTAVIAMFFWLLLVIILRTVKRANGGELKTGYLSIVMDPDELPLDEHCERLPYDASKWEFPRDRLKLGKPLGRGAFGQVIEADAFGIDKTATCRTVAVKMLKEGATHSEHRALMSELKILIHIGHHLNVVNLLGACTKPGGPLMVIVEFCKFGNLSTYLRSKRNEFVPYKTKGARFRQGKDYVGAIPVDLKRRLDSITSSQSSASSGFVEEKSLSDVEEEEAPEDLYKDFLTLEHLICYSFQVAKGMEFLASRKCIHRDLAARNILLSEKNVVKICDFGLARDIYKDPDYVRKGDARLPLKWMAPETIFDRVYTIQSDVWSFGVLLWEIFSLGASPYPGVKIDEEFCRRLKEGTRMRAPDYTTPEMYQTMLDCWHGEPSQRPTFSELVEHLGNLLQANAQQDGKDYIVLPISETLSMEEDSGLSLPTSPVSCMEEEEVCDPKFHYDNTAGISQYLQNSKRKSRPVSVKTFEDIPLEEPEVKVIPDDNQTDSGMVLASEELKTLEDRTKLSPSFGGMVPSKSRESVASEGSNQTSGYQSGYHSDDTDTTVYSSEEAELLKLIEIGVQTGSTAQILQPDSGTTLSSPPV
Method Notes: Enzyme-inhibiting activity test of kinases other than Trk (selectivity experiment): KDR
Format: biochemical
Assay Setup: concentration of 3 μM; read-out: Inhibition rate (%) KDR
Description: A test substance (the present compound) was dissolved in dimethylsulfoxide to prepare a 100-fold concentration of the test concentration, 3 μM. The solution was further diluted to 25-fold with an assay buffer (20 mM HEPES, 0.01% Triton X-100, 2 mM DTT, pH 7.5) to obtain a test substance solution. In a similar manner a positive control substance solution was prepared with a positive control substance. […]
Give bare numbers, in %.

Some solved entries appear below for comparison.
[[record]]
item_smiles = "Nc1ncc(C(F)(F)F)cc1-c1ccc(Oc2ncc(NC(=O)Nc3cc(C(F)(F)F)ccc3-n3cc(Cl)cn3)cn2)cc1"
parameter = "inhibition at 3 µM"
measured = 0

[[record]]
item_smiles = "O=C(Nc1cnc(Oc2ccc(-c3cnn4ccc(N5CCC5)nc34)cc2)nc1)Nc1cc(C(F)(F)F)ccc1-c1cccnc1"
parameter = "inhibition at 3 µM"
measured = 1.5

[[record]]
item_smiles = "CS(=O)(=O)c1ccc(C(F)(F)F)cc1NC(=O)Nc1cnc(Oc2ccc(-c3cc(C(F)(F)F)cnc3N)cc2)nc1"
parameter = "inhibition at 3 µM"
measured = 8

[[record]]
item_smiles = "Nc1ncc(Cl)cc1-c1ccc(Oc2ncc(NC(=O)Nc3ccc(C(F)(F)F)cc3-n3cccn3)cn2)cc1"
parameter = "inhibition at 3 µM"
measured = 0

[[record]]
item_smiles = "Nc1ncc(Cl)cc1-c1ccc(Oc2ncc(NC(=O)Nc3cc(C(F)(F)F)ccc3-c3ccccc3)cn2)cc1"
parameter = "inhibition at 3 µM"
measured = 0


State the recorded inhibition at 3 µM for every item in the following list.
1. CCOc1ccc2ncc(-c3ccc(Oc4ncc(NC(=O)Nc5cc(C(F)(F)F)ccc5-c5cccnc5)cn4)cc3)n2n1
2. CN(C)S(=O)(=O)c1ccc(C(F)(F)F)cc1NC(=O)Nc1cnc(Oc2ccc(-c3cc(C(F)(F)F)cnc3N)cc2)nc1
3. Cc1ccccc1-c1ccc(C(F)(F)F)cc1NC(=O)Nc1cnc(Oc2ccc(-c3cnn4ccc(N(C)C)nc34)cc2)nc1
4. Nc1ncc(C(F)(F)F)cc1-c1ccc(Oc2ncc(NC(=O)Nc3cc(C(F)(F)F)ccc3-n3ccc(C(F)(F)F)n3)cn2)cc1
5. Nc1ncc(F)cc1-c1ccc(Oc2ncc(NC(=O)Nc3cc(C(F)(F)F)ccc3-n3ccnn3)cn2)cc1

Ans.
[19, 0, 0, 0, 0]

State the recorded inhibition at 3 µM for every item in the following list.
1. Nc1ncc(Cl)cc1-c1ccc(Oc2ncc(NC(=O)Nc3cc(C(F)(F)F)ccc3-n3ccc(C(F)(F)F)n3)cn2)cc1
2. CN(C)c1ccn2ncc(-c3ccc(Oc4ncc(NC(=O)Nc5cc(C(F)(F)F)ccc5-c5ccnn5C)cn4)cc3)c2n1
3. Cc1cn(-c2ccc(C(F)(F)F)cc2NC(=O)Nc2cnc(Oc3ccc(-c4cc(Cl)cnc4N)cc3)nc2)nn1
4. Nc1ncc(Cl)cc1-c1ccc(Oc2ncc(NC(=O)Nc3ccc(C(F)(F)F)cc3C(F)(F)F)cn2)cc1
5. Nc1ncc(Cl)cc1-c1ccc(Oc2ncc(NC(=O)Nc3cc(C(F)(F)F)ccc3-n3cccn3)cn2)cc1

Ans.
[0, 9, 0, 0, 0]

State the recorded inhibition at 3 µM for every item in the following list.
1. Nc1ncc(F)cc1-c1ccc(Oc2ncc(NC(=O)Nc3cc(C(F)(F)F)ccc3-c3cccnc3)cn2)cc1
2. Cc1cccc(-c2ccc(C(F)(F)F)cc2NC(=O)Nc2cnc(Oc3ccc(-c4cnn5ccc(N(C)C)nc45)cc3)nc2)c1
3. CN(C)c1ccn2ncc(-c3ccc(Oc4ncc(NC(=O)Nc5cc(C(F)(F)F)ccc5-c5ccccc5)cn4)cc3)c2n1

Ans.
1: 1.7; 2: 0; 3: 0

State the recorded inhibition at 3 µM for every item in the following list.
1. CN(C)c1ccn2ncc(-c3ccc(Oc4ncc(NC(=O)Nc5cc(C(F)(F)F)ccc5-c5cccnc5)cn4)cc3)c2n1
2. Nc1ncc(F)cc1-c1ccc(Oc2ncc(NC(=O)Nc3cc(C(F)(F)F)ccc3-c3ccccc3)cn2)cc1
3. Nc1ncc(Cl)cc1-c1ccc(Oc2ncc(NC(=O)Nc3cc(Cl)ccc3-n3ccc(C(F)(F)F)n3)cn2)cc1
4. Nc1ncc(Cl)cc1-c1ccc(Oc2ncc(NC(=O)Nc3ccc(C(F)(F)F)cc3Cl)cn2)cc1

Ans.
[16, 0, 0, 0]
